Hi there, I'd appreciate the recorded apparent KD of K4 kissing-loop reporter for every entry that follows.
Test system: K4 kissing-loop RNA reporter
assayOverview: apparent KD of K4 kissing-loop reporter; higher = weaker reporter binding
measurementSetup: Eterna round: R107; input ligand: theophylline 20 uM
A complete answer gives the number followed by the unit.

Enquiry: For K4 kissing-loop RNA reporter, provide apparent KD of K4 kissing-loop reporter of CGGCGGAGUGAUGUUCCACCUACUGCGGAUACCAGCUUUGCCAGAGGCCCUUGGCAGCCGCACGGCUCAGUGAUGUUGGGUUGCG [Same State Theophylline A G12] please.
Return: 219 nM

Enquiry: API: value(readout=apparent KD of K4 kissing-loop reporter, system=K4 kissing-loop RNA reporter) for record UGAUAGGACAGAAGGAGCGGUAGUGAUGUUGCCAAAAGGAUAAGGUGUCAAAAGACACCCUGCCAGGUAGGUCGCUGUCCUAUCU
Return: 110 nM

Enquiry: Write down the reported apparent KD of K4 kissing-loop reporter of AGGUUUUGAUUAGGAUAUGCACUGAGGAGGAGAAUAUAGUGAUGUUAUAUAAGAGGAAUUAGUAGAGUAGAAGGGAUUGAGGUUU [SSFMNB.T] , test system: K4 kissing-loop RNA reporter.
Return: 124 nM

Enquiry: Form field: apparent KD of K4 kissing-loop reporter recorded for CGAUAGGGAAGUCGAUUGCUCACUGGUAAACGAGGACCGGUACGGCCGCCACUCGGGUCCAGUGAUGUUGGACUUUGUGGCGGGC [Edladian] with K4 kissing-loop RNA reporter (enter value)
Return: 99.5 nM

Enquiry: Kindly state the measured apparent KD of K4 kissing-loop reporter obtained for UCCUGCAAUCUGCCACGAAAGUGGAUUGAUACCAGAGUCGAAAGACUCCCUUGGCAGCGAGUGAUGUUCGAAGCAGGUAAAUAAA with K4 kissing-loop RNA reporter.
Return: 160 nM

Enquiry: # returns recorded apparent KD of K4 kissing-loop reporter (system: K4 kissing-loop RNA reporter) for UGUCUUUUUUUGAUGUUUUUUGUAUAAUGGCAGGAUAUCGUAGAUGCGAGAAGGGCUUUUAUGCGUUAUGAGUGAUGUUUGUAGG [vjjbvmullin];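 further: bound reporter read as fluorescence of individual clusters on recovered sequencing chips by microscopy, with normalized cluster intensities fitted with a binding model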
Return: 332 nM

Enquiry: Hi! What's the reported apparent KD of K4 kissing-loop reporter for AAGUGGGAACGGCCCAAUAAAGUGUUUGUCAAGGAUAUUAUUCACAUAAGAAGGUGACAGACCACCUCCGGAGUGAUGUUUUGGA [theeternabot_sameState_KL_FMN_A_42] on K4 kissing-loop RNA reporter?
Return: 508 nM

Enquiry: What measured apparent KD of K4 kissing-loop reporter is associated with AAUAUGAAGCAGUGAUGUUGCUUAUGAGAAGGAGCGCACGAAAGUGCAGGUAGGUCGCUCAGCCAAGUGGACGAAAACGUCCACA [whbob_SS_Arginine_A_sa107] on K4 kissing-loop RNA reporter?
Return: 87.2 nM

Enquiry: Lookup: apparent KD of K4 kissing-loop reporter / K4 kissing-loop RNA reporter / AUGUUGAGCGGAAGGAGCGGCUGAACCAGUGAUGUUGGUUAAUCCAAGUGAUGUUGGAAAAGCCAGGUAGGUCGCCGCUUUAUGU [Same State Arg B GF 2]
Return: 896 nM

Enquiry: What is its apparent KD of K4 kissing-loop reporter for K4 kissing-loop RNA reporter? Entry: ACCGCAUUGGGAUGAUCCCAAUGCGCUGGUCGAGGACCGGUACGGCCGCCACUCGUCCAGUGAUGUUGGAAUUGGGCUACUGAAG [KL-XTryp-A11]
Return: 195 nM

// for each sequence below, give its apparent KD of K4 kissing-loop reporter
1. GGGAGAAGAGCGGCCGCCACUCAGAAAGAAGAAGAAUAUAGUGAUGUUAUAUAGGAAAGGAAGAAGAGGACCGGGCUUAAGAGGG [#18 K4 Tryptophan B Same State]
2. AAACGUUGGUCGGAUACCAGCUUGAUCGGAAACGAUCUGCUGGAGUGAUGUUCCAAGUAAAGCCCUUGGCAGCCGACCGACGAAA [MAT - Same State Theophlline B - Mod of Eli - D18]

Return:
1: 177 nM; 2: 95.4 nM

---

Please provide measured apparent KD of MS2 coat protein for the entries that follow.
System: MS2 coat protein
assayOverview: apparent KD of MS2 coat protein; designed switch direction (-1 OFF switch, 1 ON switch): -1; higher = weaker reporter binding
measurementSetup: input ligand: none
Numbers only, in nM.

Worked cases, answers included:
Enquiry: Any idea what its apparent KD of MS2 coat protein is? The sequence is UCAAGCUUUAAGCGUGUGAACAUGAGGAUCACCCAUGUAUUUUAGGUAAUAAGUUCAAUUAUGUAUUCUCGUCUUAU [JR_SWV3TOV1_Sub095] (Eterna round: R96, puzzle: Sensor v3, turn-off variant 1)
Return: 65.4

Enquiry: Value lookup for apparent KD of MS2 coat protein; key = CUGAUGUGAGGAUAUCUAAGGCGACCAUGAGACAUGGGCCAAGAGAAGGCACAUGAGGAUCACCCAUGUACCGA [Anertees] (Eterna round: R97, puzzle: Exclusion 4)
Return: 22.2

Enquiry: I am curious: what apparent KD of MS2 coat protein value has been reported for UAAGAAUACCGAGGAUAUGGUAGUACAUAUUUACCAGAAGGCGGACUCAACAUGAGGAUCACCCAUGUAUAAAGGGUAUUAGGU [JR_ExcNG1_Sub043] (Eterna round: R96, puzzle: Exclusion NG 1) ?
Return: 64.3

Enquiry: Returns the measured apparent KD of MS2 coat protein for the input sequence. Input: AAGACACAUGAGGAUCACCCAUGUGAGGAUAUGCGAUGCUAAGCGUAAGCUUAGUAUCGCAGAAGGCACAAAGG [Salishxclusion 4 - Jieux - Exclusion 1] (Eterna round: R97, puzzle: Exclusion 1)
Return: 64

Enquiry: Which apparent KD of MS2 coat protein value belongs to GAUUGCUCGUCUUGAAAACACAUGAGGAUCACCCAUGUAACUAGGGAAACCACGAUUAUAUUCGCUUUUCAGUGUAA [Eternabot (L2) Solution 2] (Eterna round: R97, puzzle: Sensor, turn-off variant 1) ?
Return: 34.2

Value sought for every listed sequence: apparent KD of MS2 coat protein.
1. GGAGGACGAGCAGGAUAUUUUUACAUGAGGAUCACCCAUGUGUACUCAGGGUAAUCCUCCGCCGAAAAGAAGGGUUCGGAAGAA [JL ViennaUCT Socedi mod 4] (Eterna round: R96, puzzle: Exclusion NG 2)
2. ACACAGCAAGGAUAUACAUGAGGAUCACCCAUGUGGUGGCCGUUACGGUAGGACUAGUGUAGAAGGUGCAUUGG [EX3 #32] (Eterna round: R97, puzzle: Exclusion 3)

Return:
63.2
469

Can you give me apparent KD of MS2 coat protein for all of these, one by one?
1. CCCACAAGCUUUUUGCUCGACAUGAGGAUCACCCAUGUAAAAUGGGUUAUAUAUAUAUGAAACAUAUAUAUAUACCU [-21.6, -47.5 kcal, A 35%] (Eterna round: R97, puzzle: Sensor, turn-off variant 1)
2. CUAGACGGAGGAUAUACGAGAUCGAAAGAUCGGCGAUCCCUACAUGAGGAUCACCCAUGUAGAAGGCUGUUUAG [Mod 19 - Jieux - Exclusion 2] (Eterna round: R97, puzzle: Exclusion 2)

Return:
47.6
16.2

---

Test system: MS2 coat protein
assayOverview: apparent KD of MS2 coat protein; designed switch direction (-1 OFF switch, 1 ON switch): -1; higher = weaker reporter binding
measurementSetup: Eterna round: R95; input ligand: FMN 200 uM
outcomeMeasure: apparent KD of MS2 coat protein (µM)
Give bare numbers, in µM.

// known answers, use as guide
Enquiry: Fill in the blank: the reported apparent KD of MS2 coat protein of UCCUCACAUGAGGAUCACCCAUGUCAGGAUAUGCGCGGCCAAAAGGGCUGCUAAGGCAGCAGAAGGGACGUGAA [Rarequtece] (puzzle: Exclusion 1) is ____.
Return: 0.0187

Enquiry: So what's the measured apparent KD of MS2 coat protein for this one? AAGAAACAUGAGGAUCACCCAUGUGAGGAUAUGAGGAAGAAAAGAAAAGAAAGAAGAAUCAGAAGGCACAAAGG [salish99-ex1_r3_049] (puzzle: Exclusion 1)
Return: 0.0563

Enquiry: Sample AGUACUAACACGAAAGUGUUAGUACAAUAAGCUUGUGAAACAUGAGGAUCACCCAUGUCCUCAUCAGCUCGUCUUAU [salish99_TOv2_r3_052] (puzzle: Sensor v3, turn-off variant 2) — what was its apparent KD of MS2 coat protein?
Return: 0.124

Enquiry: Return reported apparent KD of MS2 coat protein; argument: CAGACACAUGAGGAUCACCCAUGUGAGGAUAUGCGUACGUUGUCCGUAGGCGACGUGCGCAGAAGGCGCAUAGG [JL-ex1-3.11 Eli mod] (puzzle: Exclusion 1)
Return: 0.0517

Enquiry: # query: apparent KD of MS2 coat protein of entry AGGAGUGAAGGAUAUACAUGAGGAUCACCCAUGUGGGAGGAAAGAGGUGAUGGAGAUAGUAGAAGGUCAGGAUG [JR_Exclusion3_Sub005] (puzzle: Exclusion 3)
Return: 0.0999

For each of the sequences below, note its apparent KD of MS2 coat protein.
1. UCAUACGGUGAGGAUAUCUCCACUAAAGUGUGAAGAGAAGGCGCUACAUGAGGAUCACCCAUGUUUAUGGGCAG [Ex-6 Malc#14] (puzzle: Exclusion 6)
2. CGUGACUCAGGAUAUGUAUAAUAUCACAUGAGGAUCACCCAUGUCCAGCGAAAGCUGGAGGCAGAAGGGAGUCACG [Fiskers Ex 5 - 38] (puzzle: Exclusion 5)
3. UCGUUGUAAAUCAGGUGAUGUCUGUUAGGAUGGACUUUGACAUGAGGAUCACCCAUGUUGCUUUUUGCCCGUCUUAA [JR_SV3TOV2_Sub045] (puzzle: Sensor v3, turn-off variant 2)
4. AGUACUAACACGAGAGUGUUAGUACUAUAAGCUUGUGUUACAUGAGGAUCACCCAUGUCCUCAUAGGCUCGUCUUAA [Mat - Sensor v3 - Turn-off var 2 - D82] (puzzle: Sensor v3, turn-off variant 2)

Return:
[0.027, 0.0431, 0.0336, 0.0758]

The following sequences each have a reported value; give each one's apparent KD of MS2 coat protein.
1. CAAAAGGUAGGAUAUACGAAAAAAAAGGGUAGAAAAAAAACACAUGAGGAUCACCCAUGUAGAAGGACCAAAAG [salish99_ex2_r3_053] (puzzle: Exclusion 2)
2. AGAAGACAUGAGGAUCACCCAUGUAAGGAUAUCGGAGGUAAGGGAGGAAGGAGAUAGGCGAGAAGGUACAGGUG [JR_Exclu1_Sub093] (puzzle: Exclusion 1)

Return:
1: 0.0712; 2: 0.039
